# System: T1, HER2-ECD (human epidermal growth factor receptor 2, extracellular domain) (Homo sapiens, UniProt P04626)
# T1 construct: also called HER-ECD
# Protocol Text: ELISA
# Conditions: one partner purified

Binder: GH2-107 scFv (scFv, V domains shown, source: E. coli ER2738, secreted, in filtered culture supernatant) VH: EVQLVESGGGLVQPGGSLRLSCAASGFTISNFGIHWVRQAPGKGLEWVAYIGPYGGYTSYADSVKGRFTISADTSKNTAYLQMNSLRAEDAAVYYCARFHIHNLWGMDYWGQGTLVTVSS VL: DIQMTQSPSSLSASVGDRVTITCRASQDVSDGVAWYQQKPGKAPKLLISGAGYLYSGVPSRFSGSGSGTDFTLTISSLQPEDFATYYCQQFYSWPITFGQGTKVEIK
binding result: binds

Binder: GH2-61 scFv (scFv, V domains shown, also called scFv(GH2-61); source: E. coli ER2738, secreted, in filtered culture supernatant) VH: EVQLVESGGGLVQPGGSLRLSCAASGFTINNWGIHWVRQAPGKGLEWVAGIWPYGGYTYYADSVKGRFTISADTSKNTAYLQMNSLRAEDTAVYYCARFYNHHGGVMDYWGQGTLVTVSS VL: DIQMTQSPSSLSASVGDRVTITCRASQDVGSNVAWYQQKPGKAPKLLISWSTSLYSGVPSRFSGSGSGTDFTLTISSLQPEDFATYYCQQYGGWPITFGQGTKVEIK
binding result: binds
